Origin of measurements: PubChem BioAssay (EPA / NIEHS)

Read-out: Interleukin-8 (IL8), CXCL8 (gene 3576)
Experiment: BSK_LPS_IL8: BioMAP Diversity Plus: LPS Assay for Interleukin-8 (IL8) Biomarker Activity (AID 2283078)
Details: primary human HUVEC with PBMC; actives raise or lower the signal
Calls of active or inactive are those of the source. Rule for the calls: active = hit-call score of the fitted dose curve at least 0.9, where 1 is the maximum; inactive = score below 0.9.
Classes used: active, inactive

1) CNC(=O)Oc1cc(C)c(SC)c(C)c1 : inactive
2) COc1ccc(CO)cc1 : inactive
3) CCCOC(=O)c1ccccc1C(=O)OCCC : inactive
4) O=[N+]([O-])O : inactive
5) CCCCCCCCCCCC#N : active
6) CC(C)COP(=O)(OCC(C)C)OCC(C)C : inactive
7) Cc1ccc(OP(=O)(Oc2ccc(C)cc2)Oc2ccc(C)cc2)cc1 (tested in a mixture with another compound) : active
8) N#CCCCCC#N : inactive
9) O=c1c2ccccc2c(=O)c2c1cc(Cl)c1[nH]c3c([nH]c12)c(Cl)cc1c(=O)c2ccccc2c(=O)c13 : inactive
10) CC(C)CCCCCCCOC(=O)c1ccccc1C(=O)OCCCCCCCC(C)C : inactive
11) O=S(=O)(c1ccccc1)c1ccccc1 : inactive
12) c1ccc(Nc2ccc3ccccc3c2)cc1 : inactive
13) CC(C)CCCCCCCOP(=O)(Oc1ccccc1)Oc1ccccc1 : inactive
14) O=C(CCl)c1ccccc1 : active
15) Clc1ccc(-c2ccccc2)cc1 : inactive
16) CC(=O)/C=C/c1ccccc1 : active
17) C=CCN(CC=C)C(=O)C(Cl)Cl : inactive
